Where do these numbers come from? They come from patent US8791143B2.

# chromatographic logP annotations
test: log P by HPLC on reversed-phase columns (EEC Directive 79/831 Annex V.A8); type: physicochemical; details: reversed-phase C18 HPLC column, pH 2.7, HPLC reversed-phase C18, acidic range pH 2.7 (HCOOH); only or first value of the cell; read-out: log P

| Compound | chromatographic logP |
| --- | --- |
| O=C(NCc1ccc(OC(F)(F)F)cc1)c1cc(Br)cc(Cl)c1NC(=O)c1cc(Cn2nnc(C(F)(F)F)n2)nn1-c1ncccc1Cl | 4.31 |
| Cc1cc(C#N)cc(C(=O)NC(C)c2ccccc2)c1NC(=O)c1cc(Cn2nnc(C(F)(F)F)n2)nn1-c1ccccc1Cl (stereo not shown) | 3.68 |
| Cc1cc(Cl)cc(C(=O)NCc2cccc(OC(F)F)c2)c1NC(=O)c1cc(Cn2nnc(C(F)(F)F)n2)nn1-c1ncccc1Cl | 3.95 |
| Cc1cc(Cl)cc(C(=O)NC(C)c2cccc(C(F)(F)F)c2)c1NC(=O)c1cc(Cn2nnc(C(F)(F)F)n2)nn1-c1ncccc1Cl (stereo not shown) | 4.42 |
| Cc1cc(F)cc(C(=O)NCc2ccccc2OC(F)(F)F)c1NC(=O)c1cc(Cn2nnc(C(F)(F)F)n2)nn1-c1ncccc1Cl | 3.92 |
| Cc1cc(C#N)cc(C(=O)NCc2cccc(Cl)c2)c1NC(=O)c1cc(Cn2nnc(C(F)(F)F)n2)nn1-c1ccccc1Cl | 3.76 |
| Cc1cc(F)cc(C(=O)NCc2ccc(OC(F)F)cc2)c1NC(=O)c1cc(Cn2nnc(C(F)(F)F)n2)nn1-c1ncccc1Cl | 3.55 |
| Cc1cc(C#N)cc(C(=O)NC2CCSC2=O)c1NC(=O)c1cc(Cn2nnc(C(F)(F)C(F)(F)F)n2)nn1-c1ncccc1Cl (stereo not shown) | 3.25 |
| Cc1cc(C#N)cc(C(=O)NCc2ccccc2OC(F)(F)F)c1NC(=O)c1cc(Cn2nnc(C(F)F)n2)nn1-c1ncccc1Cl | 3.37 |
| Cc1cc(I)cc(C(=O)NCc2ccccc2OC(F)F)c1NC(=O)c1cc(Cn2nnc(C(F)(F)C(F)(F)F)n2)nn1-c1ncccc1Cl | 4.45 |
